Target Of Assay: Peroxisome proliferator-activated receptor gamma (Homo sapiens)
Experiment Notes: qHTS assay to identify small molecule antagonists of the peroxisome proliferator-activated receptor gamma (PPARg) signaling pathway (AID 743191); also: nearly all actives have a fitted effect of over 30% in size
Condition Info: HEK293H PPARg-UAS-bla, beta-lactamase ratio, antagonist, 17 h; series mostly up to 62.6 µM
Inconclusive results are not listed. Active and inactive are the calls of the source. Calls follow the shape of the full dose curve.
Respond only with the outcome that fits, drawn from active, inactive

Below are worked cases with known answers.
> print(dat)
                             smiles.entry     label
1      Cc1ccc(/C(=C\CN2CCCC2)c2ccccn2)cc1  inactive
2                     Oc1c(Cl)ccc(Cl)c1Cl  inactive
3                               C=CCNCC=C  inactive
4  CC(=O)Nc1ccc2c(c1)Cc1cc(NC(C)=O)ccc1-2  inactive
5                  Cc1ccc(C(C)(C)C)c(O)c1  inactive

# lookup: test call for "O=C1CCc2ccccc2O1" inactive

# lookup: test call for "CN(C)/N=N/c1nc[nH]c1C(N)=O" inactive

# lookup: test call for "C=C1C[C@H]2[C@@H]3C=C(C)C4=CC(=O)CC[C@]4(C)[C@H]3CC[C@]2(C)[C@@]1(OC(C)=O)C(C)=O" inactive

# lookup: test call for "COc1ccc2nc(N)sc2c1" inactive

# lookup: test call for "COc1ccc(-c2coc3cc(O)cc(O)c3c2=O)cc1" inactive

# lookup: test call for "CNC[C@H](O)c1ccc(O)c(O)c1" inactive

# lookup: test call for "Oc1ccc(C(c2ccc(O)cc2)C(Cl)(Cl)Cl)cc1" active

# lookup: test call for "CC1(C)OC(=O)NC1=O" inactive

---

Experiment Notes: A CellTox Green Cytotoxicity Assay to monitor cytotoxicity in HepG2 cells - 16 hour (AID 1224876); also: nearly all actives have a fitted effect of over 45% in size
Condition Info: CellTox Green fluorescence; series mostly up to 76.8 µM
Results filed as inconclusive are left out. The source made the active and inactive calls. Calls come from the whole dose curve; as a rule, active = well fitted activation curve with a large enough effect in the repeat runs; inconclusive = weak or mixed curves; inactive = flat fitted curve, though single readings scatter.
Respond only with the outcome that fits, drawn from true (1) = active, false (0) = inactive

Below are worked cases with known answers.
Compound	Label
CC1(C)C(C=C(Cl)Cl)C1C(=O)OCc1cccc(Oc2ccccc2)c1 (stereo unspecified)	false (0)
IC(I)I	false (0)
Nc1ccc2c(O)cc(S(=O)(=O)O)cc2c1	false (0)
CCOC(=O)C(C)Oc1ccc(Oc2cnc3cc(Cl)ccc3n2)cc1 (stereo unspecified)	false (0)

--- query ---
# lookup: test call for "Nc1ccc(O)c(N)c1" false (0)

---

Target Of Assay: Aromatase (Homo sapiens)
Experiment Notes: qHTS assay to identify aromatase inhibitors (AID 743083); also: nearly all actives have a fitted effect of over 55% in size
Condition Info: MCF-7 aro ERE, testosterone-driven ERE luciferase, 24 h; series mostly up to 70.3 µM
Records with an inconclusive call do not appear. Activity calls are given as the source filed them. Calls follow the shape of the dose curve; as a rule, active = well fitted inhibition curve with a large enough effect in the repeat runs; inconclusive = weak or mixed curves; inactive = no such curve, though single readings can be large or run the other way.
Respond only with the outcome that fits, drawn from class 1 = active, class 0 = inactive

Below are worked cases with known answers.
Compound	Label
CC(=O)[C@@]1(O)CC[C@H]2[C@@H]3C[C@H](C)C4=CC(=O)C=C[C@]4(C)[C@@]3(F)[C@@H](O)C[C@@]21C	class 0
Nc1ccc2c(c1)C(=O)c1ccccc1C2=O	class 0
Cc1ccc(S(=O)(=O)O)cc1C	class 0
CCCCCCCC/C=C\CCCCCCCC(=O)O	class 0
CC1(C)C(C=C(Cl)Cl)C1C(=O)OCc1cccc(Oc2ccccc2)c1 (stereo not given)	class 0
c1ccc2c(c1)[nH]c1ccccc12	class 0

# lookup: test call for "Oc1ccc(C(c2ccc(O)cc2)C(Cl)(Cl)Cl)cc1" class 1

# lookup: test call for "CCC(=O)O[C@H]1[C@H](O[C@@H]2[C@@H](C)[C@H](O[C@H]3C[C@@](C)(OC)[C@@H](O)[C@H](C)O3)[C@@H](C)C(=O)O[C@H](CC)[C@@](C)(O)[C@H](O)[C@@H](C)C(=O)[C@H](C)C[C@@]2(C)O)O[C@H](C)C[C@@H]1N(C)C" class 0

# lookup: test call for C=CC(C)(O)CCC=C(C)C (stereo not given) class 0

# lookup: test call for "CC(C)=CCO" class 0
